target-or-test-system: T1, hCMV gH, gL, UL128, UL130 and UL131A co-expressed in HEK293T cells (human cytomegalovirus, UniProt P12824 24-743; P16832 31-278; P16837 1-171; P16772 1-214)
T1 construct: whole, on cells; also called gH + gL + UL128 + UL130 + UL131A; gH/gL/UL128-130 complex
assay-details: cell cross-competition, 20x excess; competitor 5A2-biotin
readout: Inhibition of binding (%)
Answer shape: numeric part, then the unit.

Asked: Tell me Inhibition of binding (%) reported for 4I22 (antibody, V domains shown, human IgG mAb; also called 4I22-biotin) VH: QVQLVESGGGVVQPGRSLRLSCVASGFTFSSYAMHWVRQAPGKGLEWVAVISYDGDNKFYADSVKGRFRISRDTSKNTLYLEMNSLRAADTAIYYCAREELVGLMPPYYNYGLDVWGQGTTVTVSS VL: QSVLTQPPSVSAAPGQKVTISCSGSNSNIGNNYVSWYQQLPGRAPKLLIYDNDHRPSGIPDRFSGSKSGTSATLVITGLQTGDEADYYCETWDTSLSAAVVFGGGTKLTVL
Given back: 0%
